Recorded koff, one value per entry.
Target: T1, C1r-CCP2-SP, recombinant autoactivated domain truncation of human C1r (human, UniProt P00736 375-703)
T1 sequence: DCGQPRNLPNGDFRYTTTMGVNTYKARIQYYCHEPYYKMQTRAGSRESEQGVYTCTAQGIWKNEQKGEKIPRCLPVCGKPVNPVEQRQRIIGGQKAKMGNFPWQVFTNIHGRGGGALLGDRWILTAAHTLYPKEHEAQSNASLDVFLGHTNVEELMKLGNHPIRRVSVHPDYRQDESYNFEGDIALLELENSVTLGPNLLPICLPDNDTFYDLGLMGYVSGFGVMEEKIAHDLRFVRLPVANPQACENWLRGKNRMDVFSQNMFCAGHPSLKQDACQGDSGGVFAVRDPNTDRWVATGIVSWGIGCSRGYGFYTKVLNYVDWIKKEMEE
Assay: SPR
Endpoint label: koff (s⁻¹)

{"Binder": "BBK32-C K327A-T331A (domain or fragment, B. burgdorferi B31, UniProt O50835 206-348, looked up) SNRYQSYLEGVKYNVDSAIQTITKIYNTYTLFSTKLTQMYSTRLDNFAKAKAKEEAAKFTKEDLEKNFKTLLNYIQVSVKTAANFVYINDTHAKRKLENIEAEIKTLIAKIKEQSNLYEAYAAIVASILLMRDSLKEVQGIID", "Readout value": 0.026}
{"Binder": "BBK32-C Y323A-E324A (domain or fragment, B. burgdorferi B31, UniProt O50835 206-348, looked up) SNRYQSYLEGVKYNVDSAIQTITKIYNTYTLFSTKLTQMYSTRLDNFAKAKAKEEAAKFTKEDLEKNFKTLLNYIQVSVKTAANFVYINDTHAKRKLENIEAEIKTLIAKIKEQSNLAAAYKAIVTSILLMRDSLKEVQGIID", "Readout value": 0.046}

This collection of values is drawn from paper PMC8612984.
